These measurements were taken from paper PMC3154745.

testTarget: T1, HP1a-CSD S199E S202E double mutant (residues 131-206) (D. melanogaster, UniProt P05205 131-206, S199E | S202E)
T1 sequence (looked up): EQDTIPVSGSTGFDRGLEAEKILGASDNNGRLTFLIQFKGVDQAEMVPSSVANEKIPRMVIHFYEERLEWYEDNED
methodNotes: fluorescence polarisation
No end group written: not given here. fluorescein = fluorescein group at the N-terminus
Quick list: Kd per entry.
readoutType: Kd (nM)

INSERT INTO assay_data (binder, readouttype, measured) VALUES
  ('fluorescein-QNISPRKLSVKINRRPYNKWLR [HP2 peptide Cys to Ser mutant (LSVKI), N-terminal fluorescein]', 'Kd', 44),
  ('fluorescein-TSRGSGDPRVKVFRGSSSGDY [PIWI peptide, N-terminal fluorescein]', 'Kd', 1700);
